target: T1, recombinant RSV-F protein (RSV A2 strain fusion (F) protein with added His tag) (human respiratory syncytial virus, A2 …, UniProt P03420 26-524); assay: SPR (Biacore), antibody captured, RSV-F as analyte
T1 construct: also called RSV-F recombinant protein
T1 sequence (P03420 26-109, chain 1 of 2): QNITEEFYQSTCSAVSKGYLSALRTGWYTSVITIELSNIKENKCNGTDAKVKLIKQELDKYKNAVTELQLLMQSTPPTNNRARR
T1 sequence (P03420 137-524, chain 2 of 2): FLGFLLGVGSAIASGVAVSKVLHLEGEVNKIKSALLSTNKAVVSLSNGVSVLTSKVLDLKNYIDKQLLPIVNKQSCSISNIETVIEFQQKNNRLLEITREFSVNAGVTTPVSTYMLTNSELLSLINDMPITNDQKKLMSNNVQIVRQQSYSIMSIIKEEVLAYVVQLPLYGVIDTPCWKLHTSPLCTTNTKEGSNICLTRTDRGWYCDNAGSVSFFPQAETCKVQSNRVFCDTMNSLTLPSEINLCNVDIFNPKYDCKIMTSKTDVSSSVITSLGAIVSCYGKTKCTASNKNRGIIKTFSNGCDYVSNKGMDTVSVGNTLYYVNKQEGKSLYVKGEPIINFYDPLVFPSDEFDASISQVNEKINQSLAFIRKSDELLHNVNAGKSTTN

binder	unit.symbol	koff
A2-N (antibody, V domains shown, also called humanized mutant antibody A2-N) VH: QVTLKESGPALVKPTQTLTLTCTFSGFSLSTSGMGVSWIRQPPGKALEWLAHIYWDDDKNFNPSLRSRLTITKDPSKNQVVLTMTNMDPVDTATYFCARKLYNDYDYILDYWGQGTTVTVSS VL: DIVMTQSPLSLPVTPGEPASISCRSSKSLLHSNGITYLNWFLQKPGQSPQLLIYQMSNLASGVPDRFSGSGSGTDFTLKISRVEAEDVGVYYCAQNLELWTFGQGTRLEIK	s⁻¹	0.000165

Source: patent US20250026815A1
